# system_name: yeast 20S proteasome (yCP) β2 subunit (TL) (Saccharomyces cerevisiae)
# Construct: gene PUP1; yeast 20S proteasome core particle
# Sequence (P25043 30-261): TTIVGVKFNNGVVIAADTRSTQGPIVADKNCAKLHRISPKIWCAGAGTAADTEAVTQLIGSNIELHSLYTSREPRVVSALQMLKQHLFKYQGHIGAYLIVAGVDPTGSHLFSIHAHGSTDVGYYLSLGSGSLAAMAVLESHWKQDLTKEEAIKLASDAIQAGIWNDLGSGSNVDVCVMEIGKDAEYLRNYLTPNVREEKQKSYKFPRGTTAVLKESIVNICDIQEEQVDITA
# protocol_notes: X-ray crystal structure ([…] Å), mM soaking; weaker TL inhibition
# Type: biochemical
pIC50: −log10 of the molar value.
endpoint_label: pIC50

Missing value: pIC50, yeast 20S proteasome (yCP) β2 subunit (TL) (Saccharomyces cerevisiae), entry CC1C=CC(=O)NCCC(O)CC(NC(=O)C(NC(=O)C=Cc2ccccc2)C(C)O)C(=O)N1 (stereo not shown) . Fill in? < 6.70

====

# system_name: yeast 20S proteasome (yCP) β5 subunit (ChTL) (Saccharomyces cerevisiae, UniProt P23724+P30656)
# Construct: gene PRE2; yeast 20S proteasome core particle; with β6 subunit of yCP
# Sequence (P30656 76-287): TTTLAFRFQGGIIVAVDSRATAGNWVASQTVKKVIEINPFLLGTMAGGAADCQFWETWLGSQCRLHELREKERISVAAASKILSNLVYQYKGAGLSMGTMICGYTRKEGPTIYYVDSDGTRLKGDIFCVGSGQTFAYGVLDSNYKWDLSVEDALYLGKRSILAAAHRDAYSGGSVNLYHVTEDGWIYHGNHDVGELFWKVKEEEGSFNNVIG
# Sequence (P23724 20-241): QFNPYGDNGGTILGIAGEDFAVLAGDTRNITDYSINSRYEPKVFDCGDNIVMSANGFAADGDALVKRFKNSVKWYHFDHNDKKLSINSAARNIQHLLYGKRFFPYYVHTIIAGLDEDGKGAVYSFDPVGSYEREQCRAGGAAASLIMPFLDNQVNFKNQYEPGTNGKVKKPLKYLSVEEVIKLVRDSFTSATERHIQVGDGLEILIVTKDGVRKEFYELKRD
# protocol_notes: X-ray crystal structure ([…] Å) and ChTL activity inhibition assay of yCP
# Format: biochemical
endpoint_label: IC50 (nM)
Your answer should be a plain number; it is taken to be in nM.

Report IC50 for CC1C=CC(=O)NCCC(O)CC(NC(=O)C(NC(=O)C=Cc2ccccc2)C(C)O)C(=O)N1 (stereo not shown) please. 107
